Test system: Nitrosomonas spp.
Test: Nitrification of ammonium in soil incubated at 25° C. (ammonium recovery, nitrate accumulation)
Details: 0.10 ppm; week 12; soil 25° C.; 200 ppm N
Counter-ions that a name gives are not always drawn.
# key: entry, value: Concentration of nitrate nitrogen
Output spec: scalar in PPM, unitless text.

{"Compound": "CO[C@@H]1[C@@H](OC)[C@H](C)[C@@](O)(CC(=O)O)O[C@H]1[C@H](C)[C@H]1O[C@@]2(CC[C@@](C)([C@H]3CC[C@@](C)([C@@H]4O[C@@H]([C@H]5O[C@](C)(O)[C@H](C)C[C@@H]5C)C[C@@H]4O[C@@H]4C[C@H](OC)[C@@H](OC)[C@H](C)O4)O3)O2)C[C@H](O)[C@H]1C [Maduramicin monoammonium salt, Maduramicin]", "Test value": 152}

*Q* # Concentration of nitrate nitrogen lookup, item CC[C@@H](C(=O)[C@@H](C)[C@@H](O)[C@H](C)CCc1ccc(C)c(O)c1C(=O)O)[C@H]1O[C@](CC)([C@H]2CC[C@](O)(CC)[C@H](C)O2)C[C@@H]1C [Lasalocid sodium salt, Lasalocid]
*A* 220

*Q* Same lookup for CC[C@@H](C(=O)[C@@H](C)[C@@H](O)[C@H](C)[C@@H]1O[C@@H]([C@@H](CC)C(=O)O)CC[C@@H]1C)[C@H]1O[C@]2(C=C[C@@H](O)[C@]3(CC[C@@](C)([C@H]4CC[C@](O)(CC)[C@H](C)O4)O3)O2)[C@H](C)C[C@@H]1C [Salinomycin monosodium salt, Salinomycin] , please.
*A* 219

*Q* Same lookup for CC[C@@]1([C@@H]2O[C@@H]([C@H]3O[C@@](O)(CO)[C@H](C)C[C@@H]3C)C[C@@H]2C)CC[C@H]([C@]2(C)CC[C@]3(C[C@H](O)[C@@H](C)[C@@H]([C@@H](C)[C@@H](OC)[C@H](C)C(=O)O)O3)O2)O1 [Monensin sodium salt, Monensin] , please.
*A* 206
